Consider the following binders and their measured % inhibition of BACE1 activity, short FRET substrate readings.
# subject_of_test: murine BACE1 ECD
# Sequence (single chain, as listed by the source limits assumed): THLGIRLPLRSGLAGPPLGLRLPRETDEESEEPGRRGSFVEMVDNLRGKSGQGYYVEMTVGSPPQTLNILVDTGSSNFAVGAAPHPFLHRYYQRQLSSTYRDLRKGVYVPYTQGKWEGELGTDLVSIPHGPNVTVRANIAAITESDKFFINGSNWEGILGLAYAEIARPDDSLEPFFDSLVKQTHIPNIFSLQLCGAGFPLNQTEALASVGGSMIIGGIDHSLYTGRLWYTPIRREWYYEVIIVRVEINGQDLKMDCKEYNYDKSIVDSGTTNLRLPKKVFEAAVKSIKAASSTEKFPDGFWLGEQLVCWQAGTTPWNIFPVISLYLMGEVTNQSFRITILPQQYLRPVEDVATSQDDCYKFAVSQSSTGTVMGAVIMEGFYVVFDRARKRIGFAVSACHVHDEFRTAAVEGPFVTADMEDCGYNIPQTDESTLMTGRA
# assay_remarks: cell-based or functional assay; note: test concentration or dose not given here
property: % inhibition of BACE1 activity, short FRET substrate (%)

* 5905 (antibody, V domains shown, anti-BACE1 IgG) VH: QLQLQESGPGLVKPSETLSLTCTVSGGSISWSSYYWSWIRQPPGKGLEWIGSIYRSGRTYYNPSLKSRVTISVDTSKNQFSLKLSSVTAADTAVYYCARVGHGISYFDLWGRGTLVTVSS VL: EIVLTQSPATLSLSPGERATLSCRASQSVSSYLAWYQQKPGQAPRLLIYDASKRATGIPARFSGSGSGTDFTLTISSLEPEDFAVYYCQQVYTWPPRTFGGGTKVEIK | 72
* 5572 (antibody, V domains shown, anti-BACE1 IgG) VH: QVQLVQSGAEVKKPGSSVKVSCKASGGTFSSYAISWVRQAPGQGLEWMGSIIPIFGTANYAQKFQGRVTITADESTSTAYMELSSLRSEDTAVYYCARSGGTKYGMLDVWGQGTMVTVSS VL: EIVMTQSPATLSVSPGERATLSCRASQSVGSNLAWYQQKPGQAPRLLIYGASTRATGIPARFSGSGSGTEFTLTISSLQSEDFAVYYCQQLYTWPPRTFGGGTKVEIK | 77
* 5894 (antibody, V domains shown, anti-BACE1 IgG) VH: QVQLVQSGAEVKKPGSSVKVSCKASGGTFSGYAISWVRQAPGQGLEWMGNIIPGFGTANYAQKFQGRVTITADESTSTAYMELSSLRSEDTAVYYCARSGGTKYGMLDVWGQGTMVTVSS VL: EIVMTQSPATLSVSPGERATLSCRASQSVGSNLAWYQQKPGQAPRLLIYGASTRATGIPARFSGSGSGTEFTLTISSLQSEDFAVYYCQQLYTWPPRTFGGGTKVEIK | 69
* 5536 (antibody, V domains shown, anti-BACE1 IgG) VH: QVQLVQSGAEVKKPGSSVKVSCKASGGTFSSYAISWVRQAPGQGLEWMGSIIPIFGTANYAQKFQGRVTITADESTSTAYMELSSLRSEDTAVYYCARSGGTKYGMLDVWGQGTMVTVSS VL: EIVMTQSPATLSVSPGERATLSCRASQSVGSNLAWYQQKPGQAPRLLIYGASTRATGIPARFSGSGSGTEFTLTISSLQSEDFAVYYCQQSYLWPPRTFGGGTKVEIK | 30

Ref: patent US20180057604A1
